B1: Arginine-glutamic acid dipeptide repeats protein, residues 502 to 543; numbered along this chain, Q9P2R6 (parent)
chain: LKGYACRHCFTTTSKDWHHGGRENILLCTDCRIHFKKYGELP

variants of: B1; test: abundance fitness (aPCA) (normalised: wild type 0, dead -1); higher = more abundant; growth selection in yeast, the domain comes from the species named; conditions: Homo sapiens
Threshold check on abundance fitness: at or above -0.08 gives Condition met, strictly below gives Condition not met.

Please check the record L27A and state if its abundance fitness is at or above -0.08.
Condition not met

Please check the record I25Y and state if its abundance fitness is at or above -0.08.
Condition not met

Please check the record T12D and state if its abundance fitness is at or above -0.08.
Condition not met

Please check the record E40A and state if its abundance fitness is at or above -0.08.
Condition met

Please check the record T13I and state if its abundance fitness is at or above -0.08.
Condition not met

Please check the record K15G and state if its abundance fitness is at or above -0.08.
Condition not met

Please check the record W17C and state if its abundance fitness is at or above -0.08.
Condition not met

Please check the record E40W and state if its abundance fitness is at or above -0.08.
Condition not met

Please check the record D30P and state if its abundance fitness is at or above -0.08.
Condition met

Please check the record E40D and state if its abundance fitness is at or above -0.08.
Condition not met

Please check the record Y4E and state if its abundance fitness is at or above -0.08.
Condition not met

Please check the record L1R and state if its abundance fitness is at or above -0.08.
Condition not met

Please check the record I33S and state if its abundance fitness is at or above -0.08.
Condition met

Values compiled from the Human Domainome abundance scans (Beltran et al. 2025).
